Recorded IC50 for the following molecules
Target: Full length ERK3 (NanoLuc fusion) (Homo sapiens, UniProt Q16659)
Construct: Full length ERK3 was cloned into pFC32K (Promega, Madison, WI, USA)
Sequence (Q16659 whole entry, the tested form may be a part): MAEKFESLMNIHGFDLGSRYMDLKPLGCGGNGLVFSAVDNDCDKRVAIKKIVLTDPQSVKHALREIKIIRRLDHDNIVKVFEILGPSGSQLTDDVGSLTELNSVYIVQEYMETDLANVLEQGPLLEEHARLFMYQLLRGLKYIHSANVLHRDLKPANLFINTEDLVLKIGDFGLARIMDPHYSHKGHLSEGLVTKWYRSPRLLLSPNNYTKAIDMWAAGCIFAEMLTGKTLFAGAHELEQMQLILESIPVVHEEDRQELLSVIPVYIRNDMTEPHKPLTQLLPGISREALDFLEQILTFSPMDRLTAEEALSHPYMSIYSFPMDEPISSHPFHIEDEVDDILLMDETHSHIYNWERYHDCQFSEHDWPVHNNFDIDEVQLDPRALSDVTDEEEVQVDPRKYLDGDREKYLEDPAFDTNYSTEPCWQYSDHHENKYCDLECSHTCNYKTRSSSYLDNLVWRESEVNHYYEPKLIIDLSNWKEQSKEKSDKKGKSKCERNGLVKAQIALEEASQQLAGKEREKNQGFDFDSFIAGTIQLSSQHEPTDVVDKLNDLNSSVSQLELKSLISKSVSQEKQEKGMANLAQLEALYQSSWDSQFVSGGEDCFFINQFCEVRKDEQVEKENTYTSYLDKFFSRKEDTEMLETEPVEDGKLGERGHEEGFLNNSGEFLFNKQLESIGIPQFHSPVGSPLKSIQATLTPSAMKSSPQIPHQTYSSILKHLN
Test: Cell-based NanoBRET assay (tracer displacement) in HEK293T cells
Details: Figure 2F; HEK293T cells, 0.25 µM Tracer K5, 2 h; averaged over two replicates
Your answer is read as nM, so omit the unit and give the number.

Some solved entries appear below for comparison.
Nc1cccc(-c2cc3c(Oc4cccc(O)c4)ncnc3[nH]2)c1	601
CN(C)C/C=C/C(=O)Nc1cccc(C(=O)Nc2ccc(Nc3nccc(-c4cccnc4)n3)cc2)c1	112

Param readout = IC50; param system = Full length ERK3 (NanoLuc fusion) (Homo sapiens, UniProt Q16659); param query = CCN1CCN(Cc2ccc(-c3cc4c(N[C@H](C)c5ccccc5)ncnc4[nH]3)cc2)CC1 ; response: value
145

Param readout = IC50; param system = Full length ERK3 (NanoLuc fusion) (Homo sapiens, UniProt Q16659); param query = CN1CCN(c2ccc(Nc3nccc(-c4cnn5ncccc45)n3)cc2C#N)CC1 ; response: value
9

Param readout = IC50; param system = Full length ERK3 (NanoLuc fusion) (Homo sapiens, UniProt Q16659); param query = CN1CCN(c2ccc(Nc3nccc(-c4cnn5ncccc45)n3)cc2F)CC1 ; response: value
20

Param readout = IC50; param system = Full length ERK3 (NanoLuc fusion) (Homo sapiens, UniProt Q16659); param query = O=C(Nc1c[nH]nc1-c1nc2ccc(CN3CCOCC3)cc2[nH]1)NC1CC1 ; response: value
15

Param readout = IC50; param system = Full length ERK3 (NanoLuc fusion) (Homo sapiens, UniProt Q16659); param query = Cc1cnc(Nc2ccc(N3CCN(C)CC3)cc2)nc1Nc1cccc(S(=O)(=O)NC(C)(C)C)c1 ; response: value
1540

Param readout = IC50; param system = Full length ERK3 (NanoLuc fusion) (Homo sapiens, UniProt Q16659); param query = O=C(c1ccc(Nc2nccc(-c3cc4ccccc4s3)n2)cc1)N1CCC(N2CCCC2)CC1 ; response: value
116

Param readout = IC50; param system = Full length ERK3 (NanoLuc fusion) (Homo sapiens, UniProt Q16659); param query = COc1cc2ncnc(Nc3ccc(O)c(Br)c3)c2cc1OC ; response: value
540

Param readout = IC50; param system = Full length ERK3 (NanoLuc fusion) (Homo sapiens, UniProt Q16659); param query = CNC(=O)c1nn(C)c2c1C(C)(C)Cc1cnc(Nc3ccc(N4CCN(C)CC4)cc3)nc1-2 ; response: value
27

====

Recorded remaining activity at 5 µM for the following compounds
Target: Full length ERK3 (NanoLuc fusion) (Homo sapiens, UniProt Q16659)
Construct: Full length ERK3 was cloned into pFC32K (Promega, Madison, WI, USA); expressed in transfected cells; host or cells: HEK293T
Test: Cell-based NanoBRET assay (tracer displacement) in HEK293T cells
Details: HEK-293T, 2 h; Table S3; single dose 5 µM; ratio to DMSO control; HEK293T; read-out: Norm.BRET 5 µM
Your answer is read as %, so omit the unit and give the number.

Some solved entries appear below for comparison.
Oc1ccc2ccccc2c1SSc1c(O)ccc2ccccc12 [IPA-3]	67.8
O=C(Nc1cccc(Nc2ncc(Br)c(NCCc3cnc[nH]3)n2)c1)N1CCCC1 [BX-912]	74.1
COc1cc2ncnc(Nc3ccc(O)c(Br)c3)c2cc1OC [WHI-P154]	50.8
Nc1nc(Nc2ccc(S(N)(=O)=O)cc2)nn1C(=O)c1c(F)cccc1F [JNJ-7706621]	23.1
Cc1ncc(-c2ccnc(Nc3ccc(S(C)(=O)=O)cc3)n2)n1C(C)C [AZD5438]	93.3
COc1cc2ncnc(Nc3cccc(Cl)c3)c2cc1OC [AG-1478]	73.5

Param readout = remaining activity at 5 µM; param system = Full length ERK3 (NanoLuc fusion) (Homo sapiens, UniProt Q16659); param query = Cc1nc(N)sc1-c1ccnc(Nc2ccc(N3CCOCC3)cc2)n1 [CYC116] ; response: value
64.9

Param readout = remaining activity at 5 µM; param system = Full length ERK3 (NanoLuc fusion) (Homo sapiens, UniProt Q16659); param query = O=C(Nc1c[nH]nc1-c1nc2ccc(CN3CCOCC3)cc2[nH]1)NC1CC1 [AT9283] ; response: value
16.1

Param readout = remaining activity at 5 µM; param system = Full length ERK3 (NanoLuc fusion) (Homo sapiens, UniProt Q16659); param query = Cc1cc(Nc2cc(N3CCN(C)CC3)nc(/C=C/c3ccccc3)n2)n[nH]1 [ENMD-2076] ; response: value
90.8

Param readout = remaining activity at 5 µM; param system = Full length ERK3 (NanoLuc fusion) (Homo sapiens, UniProt Q16659); param query = CC(C)(C)c1cnc(CSc2cnc(NC(=O)C3CCNCC3)s2)o1 [SNS-032] ; response: value
71.7
